experiment: Human HepG2 cell viability assay in 384 well format; format: toxicity, cell-based; design: dose 125 nL, time 70.5 hour; concentration not given beside the values; details: HepG2 cells, read-out: Inhibition

- molecule: "Cc1cc(C)nc(N2CCCC(c3nccn3CCCN(C)C)C2)c1 (stereo unspecified)"
  cytotoxicity at 70.5 h, %: -13.7
- molecule: "CNC(=O)c1[nH]nc2c1CN(c1cc(C3CCCNC3)nc(C)n1)CC2 (stereo unspecified)"
  cytotoxicity at 70.5 h, %: -10.6
- molecule: "NCC1CN(C(=O)c2cccc(-n3cccn3)c2)CCO1 (stereo unspecified)"
  cytotoxicity at 70.5 h, %: 5.52
- molecule: "CCN1CCC2(CN(C(C)=O)CC23CCN(CC2CC2)CC3)C1=O (stereo unspecified)"
  cytotoxicity at 70.5 h, %: -5.77
- molecule: "CC(C(=O)NC1(C#N)CCCCC1)N1CCc2c(ncn2C2CC2)C1 (stereo unspecified)"
  cytotoxicity at 70.5 h, %: -8.12
- molecule: "N#Cc1cccc(OCC(=O)N(Cc2ccncc2)C2CC2)c1"
  cytotoxicity at 70.5 h, %: -10.3
- molecule: "COc1ccc2c(c1)CCCN2C(=O)NCCc1cnn(C)c1"
  cytotoxicity at 70.5 h, %: -11.2
- molecule: "CC(=O)N(C)CC(=O)Nc1cnc(-n2ccnc2C)nc1"
  cytotoxicity at 70.5 h, %: 27.9
- molecule: "O=C(CCc1ccccc1)C1CCCN(C(=O)c2cncc(Cl)c2)C1 (stereo unspecified)"
  cytotoxicity at 70.5 h, %: -25.5
- molecule: "Cc1ccccc1OCCC(=O)N1CCCC(n2cncn2)C1 (stereo unspecified)"
  cytotoxicity at 70.5 h, %: -6.17
- molecule: "Cc1ccc(N2CCC3(CC2)CCN(C2CCOCC2)CC3)nn1"
  cytotoxicity at 70.5 h, %: -2.19

---

Readings of cytotoxicity at 70.5 h for the listed molecules
experiment: Human HepG2 cell viability assay in 384 well format; format: toxicity, cell-based; design: dose 125 nL, time 70.5 hour; concentration not given beside the values; settings: HepG2 cells, read-out: Inhibition
measurement_label: cytotoxicity at 70.5 h (%)

- molecule: "CNC(=O)c1ccc(C2CN(C(=O)c3cncs3)CCO2)nc1 (stereo unspecified)"
  measurement_label: "cytotoxicity at 70.5 h"
  result_unit: "%"
  experimental_result: -3.2
- molecule: "CCOc1ccc(Cl)c(C(=O)NC(C)C(N)=O)n1 (stereo unspecified)"
  measurement_label: "cytotoxicity at 70.5 h"
  result_unit: "%"
  experimental_result: -5.7
- molecule: "COc1cccc(/C=C/CCN2CCC(C(=O)N3CCCC3)CC2)c1"
  measurement_label: "cytotoxicity at 70.5 h"
  result_unit: "%"
  experimental_result: 3.93
- molecule: "CCc1ccccc1-c1cc(OC)nc(N)n1"
  measurement_label: "cytotoxicity at 70.5 h"
  result_unit: "%"
  experimental_result: -8.45
- molecule: "CCn1ncc2c1CCCC2NCc1csc(COC)n1 (stereo unspecified)"
  measurement_label: "cytotoxicity at 70.5 h"
  result_unit: "%"
  experimental_result: 21.6
- molecule: "Cc1cc(CN2CCC(C3CCN(CCc4ccccc4)C3)CC2)[nH]n1 (stereo unspecified)"
  measurement_label: "cytotoxicity at 70.5 h"
  result_unit: "%"
  experimental_result: -0.374
